B1: INTS3 (parent)
chain: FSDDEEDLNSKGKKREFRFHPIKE

variants of: B1; assay: protein stability index of a GFP-peptide fusion (GPS, HEK-293T) (PSI 1-6); higher = more stable; conditions: c terminus: a fixed tail appended;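 further: lentivirally expressed fusions sorted by FACS into six bins by GFP to DsRed ratio, PSI derived from sequencing read proportions per bin multiplied by bin number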
readout: protein stability index
Answers are plain numbers.

chain: FSDDHEDLNSKGKKREFRFHPIKE
experimental.result: 2.18

Dear colleague, could you send me protein stability index for each of the items below? Thanks.
1. FSDGEEDLNSKGKKREFRFHPIKE
2. FSDDEEWLNSKGKKREFRFHPIKE
3. FSDYEEDLNSKGKKREFRFHPIKE

[2.52, 2.23, 2.51]

Dear colleague, could you send me protein stability index for each of the items below? Thanks.
1. FSDDEEDLNSKGKHREFRFHPIKE
2. FSDDEEDLNSKGKKREFRMHPIKE
3. FSDDEEDLNSKGKKREMRFHPIKE
4. FSDDEEDLNSKGMKREFRFHPIKE
5. FSDDEEDLNSKGKKREFRWHPIKE
6. FSDDEEDLNSKGKKREFRFHPCKE

[2.86, 4.86, 4.79, 3.23, 3.72, 2.48]

Cited source for all entries: the supplement of paper PMC10567573
